Biological target: T1, USP7 Ubl123 D762A/D764A (human, UniProt Q93009 535-889, D762A/D764A | D762A/D764A)
T1 construct: USP7, human, residues 535-889 with D762A and D764A; Synthesized (Genscript), in pET15b; also called Ubl123 mutant D762A/D764A; source: E. coli BL21(DE3)mgk, purified (nickel-NTA, SEC)
T1 sequence (Q93009 535-889 D762A/D764A): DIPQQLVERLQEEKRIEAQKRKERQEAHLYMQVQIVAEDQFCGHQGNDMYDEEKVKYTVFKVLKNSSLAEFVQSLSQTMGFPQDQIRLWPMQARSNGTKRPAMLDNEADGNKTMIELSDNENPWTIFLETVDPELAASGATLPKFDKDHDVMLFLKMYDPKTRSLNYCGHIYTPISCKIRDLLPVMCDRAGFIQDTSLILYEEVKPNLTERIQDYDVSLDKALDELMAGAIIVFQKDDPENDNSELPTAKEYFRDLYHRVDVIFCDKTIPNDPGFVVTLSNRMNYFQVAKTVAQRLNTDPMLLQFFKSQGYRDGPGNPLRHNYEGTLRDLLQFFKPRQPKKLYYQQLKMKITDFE
Assay: fluorescence polarisation; USP7 proteins titrated (0 to 200 μM) into 40 nM N-terminally FITC-labeled peptide; 0.01% Triton X-100, 150 mM NaCl, 20 mM Tris pH 7.5
Settings: both partners purified
Primed or numbered codes have the meaning given here. No end group written: not given here. FITC′ = fluorescein isothiocyanate label
Measured Property: Kd

Query string: # return recorded Kd for entry {FITC′}-GPRKCARKTRH [FITC-labeled ICP0 peptide]
Result string: > 100 µM
